# PROCEDURE DETAILS: Photolysis of AAH (absorbance decline at 266 nm)
# Assay type: physicochemical
# ASSAY SETUP: 3×10^-5 M AAH, modified Krebs-Henseleit solution, tungsten-halogen lamp 650 W; read-out: t1/2 of first-order absorbance reduction at 266 nm caused by photolysis
ENDPOINT NAME: half-life at 30 µM
Write the quantity with the unit trailing the number.

Entry `[N-]=[N+]=Nc1ccc(NCCc2c[nH]cn2)c([N+](=O)[O-])c1` — recorded half-life at 30 µM = 3.8 min
